targetSystem: human HER2 Extracellular Domain (HER2 ECD) (human, UniProt P04626 23-652)
measurementProtocol: ELISA, antigen coated, hybridoma supernatant
metric: OD 405 nm

binder | measuredResult
anti-HER3 antibody M-08-11 (antibody, V domains shown, mouse monoclonal antibody from hybridoma, tested as hybridoma supernatant or as antibody; also called M-011) VH: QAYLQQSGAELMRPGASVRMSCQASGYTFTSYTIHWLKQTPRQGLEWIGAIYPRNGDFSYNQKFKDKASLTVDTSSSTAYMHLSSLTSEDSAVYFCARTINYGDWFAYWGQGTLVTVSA VL: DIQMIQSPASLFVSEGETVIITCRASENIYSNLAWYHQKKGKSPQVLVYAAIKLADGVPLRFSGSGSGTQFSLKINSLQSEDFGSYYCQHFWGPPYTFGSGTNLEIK | 0.025 OD
anti-HER3 antibody M-17-07 (antibody, V domains shown, mouse hybridoma clone) VH: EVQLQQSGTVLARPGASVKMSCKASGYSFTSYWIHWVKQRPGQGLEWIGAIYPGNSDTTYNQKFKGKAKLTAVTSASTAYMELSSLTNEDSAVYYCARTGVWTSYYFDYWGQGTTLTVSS VL: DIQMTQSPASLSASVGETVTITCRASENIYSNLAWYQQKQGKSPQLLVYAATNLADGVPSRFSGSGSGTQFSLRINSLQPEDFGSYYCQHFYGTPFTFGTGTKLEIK | 0.03 OD
anti-HER3 antibody M-17-02 (antibody, V domains shown, mouse hybridoma clone) VH: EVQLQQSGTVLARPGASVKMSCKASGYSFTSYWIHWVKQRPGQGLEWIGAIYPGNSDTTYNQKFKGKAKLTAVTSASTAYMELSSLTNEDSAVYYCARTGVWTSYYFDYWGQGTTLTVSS VL: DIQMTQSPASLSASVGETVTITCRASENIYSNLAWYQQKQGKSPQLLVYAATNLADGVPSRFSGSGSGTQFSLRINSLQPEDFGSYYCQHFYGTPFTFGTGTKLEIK | 0.03 OD
anti-HER3 antibody M-17-12 (antibody, V domains shown, mouse hybridoma clone; VH and VL stated identical to those of M-17-02) VH: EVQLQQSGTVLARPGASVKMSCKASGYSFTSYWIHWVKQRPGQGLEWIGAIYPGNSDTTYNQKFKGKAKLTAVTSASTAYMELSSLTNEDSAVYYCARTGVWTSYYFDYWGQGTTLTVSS VL: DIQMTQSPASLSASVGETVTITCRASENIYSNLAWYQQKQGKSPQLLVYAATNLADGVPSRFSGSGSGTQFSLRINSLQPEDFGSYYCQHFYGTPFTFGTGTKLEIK | 0.023 OD
